B1: KRT13 (parent)
chain: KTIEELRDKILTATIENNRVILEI

# Variants of: B1
# measurement_notes: protein stability index of a GFP-peptide fusion (GPS, HEK-293T) (PSI 1-6); higher = more stable;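 further: lentivirally expressed fusions sorted by FACS into six bins by GFP to DsRed ratio, PSI derived from sequencing read proportions per bin multiplied by bin number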
# study_conditions: c terminus: a fixed tail appended
Outcome label depends on protein stability index relative to 3: at/above gives criterion met, below gives criterion not met.

>>> class_name("A13K")
"criterion not met"
>>> class_name("R19V")
"criterion not met"
>>> class_name("A13M")
"criterion not met"
>>> class_name("I24P")
"criterion met"
>>> class_name("L11R")
"criterion not met"
>>> class_name("L11D")
"criterion not met"
>>> class_name("D8P")
"criterion not met"
>>> class_name("A13H")
"criterion not met"

Is protein stability index for I3G at or above 3?
criterion met

Is protein stability index for A13Q at or above 3?
criterion not met

Is protein stability index for R7L at or above 3?
criterion met

Is protein stability index for E16V at or above 3?
criterion not met

Is protein stability index for V20Q at or above 3?
criterion not met

Is protein stability index for I21V at or above 3?
criterion not met

Is protein stability index for L22M at or above 3?
criterion not met

Is protein stability index for I15D at or above 3?
criterion not met

Is protein stability index for I3S at or above 3?
criterion not met
